Reference source for all entries: ChEMBL document CHEMBL1156877

# target: Vascular endothelial growth factor receptor 2 (Homo sapiens, UniProt P35968)
# Sequence (P35968 whole entry): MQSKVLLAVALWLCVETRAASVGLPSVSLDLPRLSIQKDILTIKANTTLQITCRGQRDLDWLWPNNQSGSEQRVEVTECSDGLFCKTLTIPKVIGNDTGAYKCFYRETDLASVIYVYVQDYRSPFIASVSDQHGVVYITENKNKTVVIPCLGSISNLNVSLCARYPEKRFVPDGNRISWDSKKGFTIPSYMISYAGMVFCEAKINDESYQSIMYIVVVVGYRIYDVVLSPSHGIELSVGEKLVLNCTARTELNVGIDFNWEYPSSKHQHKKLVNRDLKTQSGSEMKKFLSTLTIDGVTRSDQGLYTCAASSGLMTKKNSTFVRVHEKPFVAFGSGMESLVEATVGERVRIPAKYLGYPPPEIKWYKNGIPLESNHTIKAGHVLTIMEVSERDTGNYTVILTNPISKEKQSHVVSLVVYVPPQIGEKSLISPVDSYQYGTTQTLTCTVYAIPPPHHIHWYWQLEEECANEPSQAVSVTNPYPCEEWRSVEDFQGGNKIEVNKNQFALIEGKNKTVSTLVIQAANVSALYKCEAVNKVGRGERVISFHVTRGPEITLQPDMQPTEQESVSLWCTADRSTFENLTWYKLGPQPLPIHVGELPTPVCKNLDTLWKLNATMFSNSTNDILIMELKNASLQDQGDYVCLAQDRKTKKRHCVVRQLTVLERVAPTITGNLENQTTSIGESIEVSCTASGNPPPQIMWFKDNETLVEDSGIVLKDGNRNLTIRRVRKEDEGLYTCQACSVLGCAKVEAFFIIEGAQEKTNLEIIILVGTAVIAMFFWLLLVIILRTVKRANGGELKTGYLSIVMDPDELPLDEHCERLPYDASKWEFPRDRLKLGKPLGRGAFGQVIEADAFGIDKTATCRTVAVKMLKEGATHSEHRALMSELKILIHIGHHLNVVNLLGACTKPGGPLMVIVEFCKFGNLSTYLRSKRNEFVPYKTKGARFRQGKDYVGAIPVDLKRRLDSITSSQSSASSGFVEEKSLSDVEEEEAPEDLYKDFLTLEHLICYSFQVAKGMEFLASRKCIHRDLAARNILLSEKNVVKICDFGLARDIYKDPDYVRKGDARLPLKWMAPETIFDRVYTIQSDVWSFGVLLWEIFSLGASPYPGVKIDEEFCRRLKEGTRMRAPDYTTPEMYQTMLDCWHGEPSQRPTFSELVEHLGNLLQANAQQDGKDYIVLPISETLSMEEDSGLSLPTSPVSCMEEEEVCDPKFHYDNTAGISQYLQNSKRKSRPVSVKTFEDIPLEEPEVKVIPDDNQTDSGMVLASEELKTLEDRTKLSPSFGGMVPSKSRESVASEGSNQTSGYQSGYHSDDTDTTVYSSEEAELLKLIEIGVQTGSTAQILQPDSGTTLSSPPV
# protocolDetails: Inhibition of recombinant KDR by TR-FRET assay
parameter: IC50 (µM)

Past entries and their recorded results:
C[C@@H](Oc1ccc2ncc(/C=C/C(N)=O)cc2c1)c1c(Cl)ccc(F)c1Cl	11
C[C@@H](Oc1ccc2ncccc2c1)c1c(Cl)ccc(F)c1Cl	23
CC(Oc1ccc2ncc(/C=C/CN)cc2c1)c1c(Cl)ccc(F)c1Cl (racemic)	33

[P] CC(Oc1ccc2ncc(/C=C/C(N)=O)cc2c1)c1c(Cl)ccc(F)c1Cl (racemic)
[Q] CC(Oc1ccc2ncc(CCC(N)=O)cc2c1)c1c(Cl)ccc(F)c1Cl (racemic)
Please indicate which has the smaller reported IC50: P , or Q . Mark your selection by writing its label.
P
(P: 26 µM, Q: 50 µM)
